Source: ChEMBL document CHEMBL1153306

- System: Epidermophyton floccosum
- experiment.summary: Antimicrobial activity against Epidermophyton floccosum after 48 hrs by broth microdilution technique
- Type: functional
reported.endpoint: MIC (µg/mL)
Numbers only, in µg/mL.

In the examples that follow, each entry is paired with its recorded MIC.
* COC(=O)c1cc(O)c(O)c(O)c1 | 100
* CCCCCCOC(=O)c1cc(O)c(O)c(O)c1 [HEXYL GALLATE] | 25
* CCCCOC(=O)c1cc(O)c(O)c(O)c1 [BUTYL GALLATE] | 100
* O=C(O)c1cc(O)c(O)c(O)c1 | 100
* Oc1cccc(O)c1O | 12.5

// batch mode: one MIC value per listed entry
1. CCCCCCCCCCCCCCCCCCOC(=O)c1cc(O)c(O)c(O)c1 [OCTADECYL GALLATE]
2. CCCCCCCCCOC(=O)c1cc(O)c(O)c(O)c1 [NONYL GALLATE]

Key:
1: 250; 2: 25

* * *

- Tested on: Aspergillus fumigatus
- experiment.summary: Antimicrobial activity against Aspergillus fumigatus after 48 hrs by broth microdilution technique
- Assay type: functional
reported.endpoint: MIC

In the examples that follow, each entry is paired with its recorded MIC.
* CCCCCCCCCCCCCCOC(=O)c1cc(O)c(O)c(O)c1 [TETRADECYL GALLATE] | > 250 µg/mL
* Oc1cccc(O)c1O | 100 µg/mL
* C[C@@H]1[C@H](O)[C@@H](C)/C=C/C=C/C=C/C=C/C=C/C=C/C=C/[C@H](O[C@@H]2O[C@H](C)[C@@H](O)[C@H](N)[C@@H]2O)C[C@@H]2O[C@](O)(C[C@@H](O)C[C@@H](O)[C@H](O)CC[C@@H](O)C[C@@H](O)CC(=O)O[C@H]1C)C[C@H](O)[C@H]2C(=O)O | 0.5 µg/mL
* CCCCOC(=O)c1cc(O)c(O)c(O)c1 [BUTYL GALLATE] | > 250 µg/mL
* CCCCCCOC(=O)c1cc(O)c(O)c(O)c1 [HEXYL GALLATE] | > 250 µg/mL

// batch mode: one MIC value per listed entry
1. CCOC(=O)c1cc(O)c(O)c(O)c1 [ETHYLGALLATE]
2. CCCCCCCCCCCOC(=O)c1cc(O)c(O)c(O)c1 [UNDECYL GALLATE]
3. CCCCCCCCCCCCOC(=O)c1cc(O)c(O)c(O)c1 [DODECYL GALLATE]

Key:
1. > 250 µg/mL
2. > 250 µg/mL
3. > 250 µg/mL

* * *

Would you kindly list MIC for each of these compounds?
- Tested on: Candida albicans
- experiment.summary: Antifungal activity against Candida albicans after 48 hrs by broth microdilution technique
- Format: functional

In the examples that follow, each entry is paired with its recorded MIC.
* CCCCCCCOC(=O)c1cc(O)c(O)c(O)c1 [HEPTYL GALLATE] | 100 µg/mL
* CCCCCCCCOC(=O)c1cc(O)c(O)c(O)c1 [OCTYL_GALLATE] | 62.5 µg/mL
* CCOC(=O)c1cc(O)c(O)c(O)c1 [ETHYLGALLATE] | > 250 µg/mL

// batch mode: one MIC value per listed entry
1. COc1cc(C(=O)O)cc(OC)c1OC
2. CCCCCOC(=O)c1cc(O)c(O)c(O)c1 [PENTYL GALLATE]
3. CCCCOC(=O)c1cc(O)c(O)c(O)c1 [BUTYL GALLATE]
4. CCCCCCCCCCCOC(=O)c1cc(O)c(O)c(O)c1 [UNDECYL GALLATE]
5. CCCCCCCCCCCCCCCCOC(=O)c1cc(O)c(O)c(O)c1 [HEXADECYL GALLATE]
6. CCCCCCCCCCCCCCOC(=O)c1cc(O)c(O)c(O)c1 [TETRADECYL GALLATE]
7. CCOC(=O)c1cc(OC)c(OC)c(OC)c1 [ETHYLTRIMETHOXY BENZOATE]
8. CCCCCCCCCCCCOC(=O)c1cc(O)c(O)c(O)c1 [DODECYL GALLATE]

Key:
1: > 250 µg/mL; 2: > 250 µg/mL; 3: > 250 µg/mL; 4: 250 µg/mL; 5: > 250 µg/mL; 6: > 250 µg/mL; 7: > 250 µg/mL; 8: > 250 µg/mL

// batch mode: one MIC value per listed entry
1. CC(=O)N1CCN(c2ccc(OCC3COC(Cn4ccnc4)(c4ccc(Cl)cc4Cl)O3)cc2)CC1 (configuration not stated)
2. CC(=O)Oc1cc(C(=O)O)cc(OC(C)=O)c1OC(C)=O
3. CCCCCCCCCCOC(=O)c1cc(O)c(O)c(O)c1 [DECYL GALLATE]

Key:
["1.56 µg/mL", "> 250 µg/mL", "100 µg/mL"]

// batch mode: one MIC value per listed entry
1. CCCCCCCCCOC(=O)c1cc(O)c(O)c(O)c1 [NONYL GALLATE]
2. O=C(O)c1cc(O)c(O)c(O)c1
3. CCCCCCCCCCCCCCCCCCOC(=O)c1cc(O)c(O)c(O)c1 [OCTADECYL GALLATE]
4. CCCCCCOC(=O)c1cc(O)c(O)c(O)c1 [HEXYL GALLATE]

Key:
1: 8 µg/mL; 2: > 250 µg/mL; 3: > 250 µg/mL; 4: > 250 µg/mL

// batch mode: one MIC value per listed entry
1. CCCOC(=O)c1cc(O)c(O)c(O)c1 [PROPYL GALLATE]
2. Oc1cccc(O)c1O
3. C[C@@H]1[C@H](O)[C@@H](C)/C=C/C=C/C=C/C=C/C=C/C=C/C=C/[C@H](O[C@@H]2O[C@H](C)[C@@H](O)[C@H](N)[C@@H]2O)C[C@@H]2O[C@](O)(C[C@@H](O)C[C@@H](O)[C@H](O)CC[C@@H](O)C[C@@H](O)CC(=O)O[C@H]1C)C[C@H](O)[C@H]2C(=O)O
4. COC(=O)c1cc(O)c(O)c(O)c1

Key:
1: > 250 µg/mL; 2: 100 µg/mL; 3: 0.78 µg/mL; 4: > 250 µg/mL
